# assay system: SHP2 (Homo sapiens (Human))
# Sequence (Q06124 whole entry): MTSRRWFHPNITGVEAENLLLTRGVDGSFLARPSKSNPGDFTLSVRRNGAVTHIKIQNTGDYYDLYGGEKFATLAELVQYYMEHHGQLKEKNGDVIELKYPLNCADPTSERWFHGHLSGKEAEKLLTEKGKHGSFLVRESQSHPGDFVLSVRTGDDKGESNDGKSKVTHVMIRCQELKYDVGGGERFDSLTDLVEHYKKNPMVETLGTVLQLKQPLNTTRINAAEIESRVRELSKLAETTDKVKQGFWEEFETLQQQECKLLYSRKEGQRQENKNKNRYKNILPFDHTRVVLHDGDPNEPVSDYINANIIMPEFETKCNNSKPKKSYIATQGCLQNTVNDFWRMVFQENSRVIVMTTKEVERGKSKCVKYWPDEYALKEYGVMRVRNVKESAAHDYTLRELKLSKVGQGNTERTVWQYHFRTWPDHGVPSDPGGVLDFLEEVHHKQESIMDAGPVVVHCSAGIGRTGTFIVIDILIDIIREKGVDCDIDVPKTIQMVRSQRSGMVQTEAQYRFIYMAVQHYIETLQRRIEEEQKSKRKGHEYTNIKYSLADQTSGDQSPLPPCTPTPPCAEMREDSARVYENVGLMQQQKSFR
# assay text: SHP2 allosteric inhibition assay (DiFMUP prompt fluorescence)
# protocol conditions: 0.5 nM SHP2 activated with 0.5 μM peptide IRS1_pY1172(dPEG8)pY1222; substrate DiFMUP; 25° C.

[
  {
    "compound": "CCOc1nccc(Sc2cnc(N3CCC4(CC3)CO[C@@H](C)[C@H]4N)n(C)c2=O)c1Cl [Example 102]",
    "measurement units": "nM",
    "IC50": 10
  },
  {
    "compound": "Cn1c(N2CCC3(CCC[C@H]3N)CC2)nc(N)c(Sc2cccnc2C(F)(F)F)c1=O [Example 14]",
    "measurement units": "nM",
    "IC50": 98
  },
  {
    "compound": "C[C@H]1C[C@@H](N)C2(CCN(c3nc(N)c(-c4ccc(Cl)cc4)c(=O)n3C)CC2)C1 [Example 172]",
    "measurement units": "nM",
    "IC50": 174
  },
  {
    "compound": "COc1nccc(Sc2c(N)nc(N3CCC4(CC3)CO[C@@H](C)[C@H]4N)n(C)c2=O)c1Cl [Example 23]",
    "measurement units": "nM",
    "IC50": 23
  },
  {
    "compound": "Cn1c(N2CCC(C)(CN)CC2)nc(N)c(-c2cccc(Cl)c2Cl)c1=O [Example 193]",
    "measurement units": "nM",
    "IC50": 40
  },
  {
    "compound": "C[C@H]1C[C@@H](N)C2(CCN(c3nc(N)c(Sc4cc(N)cnc4Cl)c(=O)n3C)CC2)C1 [Example 68]",
    "measurement units": "nM",
    "IC50": 10
  },
  {
    "compound": "COCCOc1ccc(-c2c(N)nc(N3CCC4(CC3)CO[C@@H](C)[C@H]4N)n(C)c2=O)cc1 [Example 170]",
    "measurement units": "nM",
    "IC50": 169
  },
  {
    "compound": "Cc1nc(N2CCC3(CC2)CO[C@@H](C)[C@H]3N)n(C)c(=O)c1-c1ccccc1 [Example 197]",
    "measurement units": "nM",
    "IC50": 369
  },
  {
    "compound": "C[C@@H]1OCC2(CCN(c3nc(N)c(-c4cccc(Cl)c4Cl)c(=O)n3C)CC2)[C@@H]1N [Example 132]",
    "measurement units": "nM",
    "IC50": 16
  },
  {
    "compound": "CC1(CN)CCN(c2nc(N)c(Sc3cccnc3C(F)(F)F)c(=O)[nH]2)CC1 [Example 90]",
    "measurement units": "nM",
    "IC50": 66
  },
  {
    "compound": "C[C@@H]1OCC2(CCN(c3nc(N)c(-c4ccc(C(C)(C)C)cc4)c(=O)n3C)CC2)[C@@H]1N [Example 174]",
    "measurement units": "nM",
    "IC50": 183
  },
  {
    "compound": "CC[C@@H]1OCC2(CCN(c3nc(N)c(-c4ccccc4)c(=O)n3C)CC2)[C@@H]1N [Example 144]",
    "measurement units": "nM",
    "IC50": 34
  },
  {
    "compound": "C[C@@H]1CC2(CCN(c3nc(N)c(Sc4ccnc(N)c4Cl)c(=O)n3C)CC2)[C@H](N)[C@@H]1F (single isomer, unassigned) [Example 38]",
    "measurement units": "nM",
    "IC50": 30
  },
  {
    "compound": "C[C@@H]1OCC2(CCN(c3nc(N)c(Sc4ccnc(C(F)(F)F)c4Cl)c(=O)n3C)CC2)[C@@H]1N [Example 59]",
    "measurement units": "nM",
    "IC50": 43
  },
  {
    "compound": "CC1(CN)CCN(c2ncc(Sc3ccccc3Cl)c(=O)[nH]2)CC1 [Example 94]",
    "measurement units": "nM",
    "IC50": 178
  },
  {
    "compound": "C[C@@H]1OCC2(CCN(c3nc(N)c(-c4cc(Cl)ccc4Cl)c(=O)n3C)CC2)[C@@H]1N [Example 186]",
    "measurement units": "nM",
    "IC50": 2230
  },
  {
    "compound": "C[C@@H]1OCC2(CCN(c3nc(N)c(-c4ccc(F)cc4)c(=O)n3C)CC2)[C@@H]1N [Example 146]",
    "measurement units": "nM",
    "IC50": 38
  },
  {
    "compound": "Cn1c(N2CCC(C)(CN)CC2)nc(N)c(Sc2ccccc2C#N)c1=O [Example 51]",
    "measurement units": "nM",
    "IC50": 391
  },
  {
    "compound": "Cc1nc(N2CCC3(CC2)CO[C@@H](C)[C@H]3N)n(C)c(=O)c1Sc1ccnc(N)c1Cl [Example 121]",
    "measurement units": "nM",
    "IC50": 60
  },
  {
    "compound": "Cn1c(N2CCC(C)(CN)CC2)ccc(Sc2cccc(Cl)c2Cl)c1=O [Example 116]",
    "measurement units": "nM",
    "IC50": 1620
  },
  {
    "compound": "CCOc1nccc(Sc2cnc(N3CCC4(CC3)CO[C@@H](C)[C@H]4N)[nH]c2=O)c1Cl [Example 95]",
    "measurement units": "nM",
    "IC50": 23
  },
  {
    "compound": "C[C@H]1C[C@@H](N)C2(CCN(c3nc(N)c(Sc4cc(N)nc(Cl)c4Cl)c(=O)n3C)CC2)C1 [Example 70]",
    "measurement units": "nM",
    "IC50": 11
  },
  {
    "compound": "C[C@H]1C[C@@H](N)C2(CCN(c3nc(N)c(Sc4ccnc(Cl)c4C(F)(F)F)c(=O)n3C)CC2)C1 [Example 73]",
    "measurement units": "nM",
    "IC50": 71
  },
  {
    "compound": "Cn1c(N2CCC3(CC2)C[C@@H](C(F)(F)F)C[C@H]3N)nc(N)c(Sc2cccnc2C(F)(F)F)c1=O [Example 84]",
    "measurement units": "nM",
    "IC50": 72
  },
  {
    "compound": "C[C@@H]1CC2(CCN(c3nc(N)c(Sc4ccnc(N)c4Cl)c(=O)n3C)CC2)[C@@H](N)[C@H]1F (single isomer, unassigned) [Example 37]",
    "measurement units": "nM",
    "IC50": 47
  },
  {
    "compound": "Cn1c(N2CCC3(CC2)C[C@H](C(F)(F)F)C[C@H]3N)nc(N)c(Sc2cccnc2C(F)(F)F)c1=O [Example 83]",
    "measurement units": "nM",
    "IC50": 56
  },
  {
    "compound": "C[C@@H]1OCC2(CCN(c3cc(N)c(Sc4cccnc4C(F)(F)F)c(=O)[nH]3)CC2)[C@@H]1N [Example 88]",
    "measurement units": "nM",
    "IC50": 42
  },
  {
    "compound": "COc1cccc(Sc2c(N)nc(N3CCC4(CC3)CO[C@@H](C)[C@H]4N)n(C)c2=O)c1Cl [Example 20]",
    "measurement units": "nM",
    "IC50": 17
  },
  {
    "compound": "C[C@@H]1OCC2(CCN(c3nc(N)c(-c4cc(Cl)cc(Cl)c4)c(=O)n3C)CC2)[C@@H]1N [Example 179]",
    "measurement units": "nM",
    "IC50": 421
  },
  {
    "compound": "Cn1c(N2CCC(C)(CN)CC2)nc(N)c(Sc2ccccc2Br)c1=O [Example 45]",
    "measurement units": "nM",
    "IC50": 137
  }
]

---

# assay system: SHP2 (Homo sapiens (Human))
# assay text: SHP2 allosteric inhibition assay (DiFMUP prompt fluorescence)
# protocol conditions: 0.5 nM SHP2 activated with 0.5 μM peptide IRS1_pY1172(dPEG8)pY1222; substrate DiFMUP; 25° C.
The entries below come with measured IC50 values attached.

[
  {
    "compound": "Cn1c(N2CCC(C)(CN)CC2)nc(N)c(Sc2ccccc2OC(F)(F)F)c1=O",
    "assay system": "SHP2 (Homo sapiens (Human))",
    "measurement units": "nM",
    "IC50": 89
  },
  {
    "compound": "Cn1c(N2CCC(C)(CN)CC2)nc(N)c(Sc2ccccc2O)c1=O",
    "assay system": "SHP2 (Homo sapiens (Human))",
    "measurement units": "nM",
    "IC50": 721
  },
  {
    "compound": "Cc1nc(N2CCC3(CC2)CO[C@@H](C)[C@H]3N)n(C)c(=O)c1Sc1cccnc1C(F)(F)F",
    "assay system": "SHP2 (Homo sapiens (Human))",
    "measurement units": "nM",
    "IC50": 68
  },
  {
    "compound": "Cn1c(N2CCC3(CC2)C[C@H](F)C[C@H]3N)nc(N)c(Sc2cccnc2C(F)(F)F)c1=O",
    "assay system": "SHP2 (Homo sapiens (Human))",
    "measurement units": "nM",
    "IC50": 24
  },
  {
    "compound": "C[C@H]1C[C@@H](N)C2(CCN(c3nc(N)c(Sc4cc(N)ccc4Cl)c(=O)n3C)CC2)C1",
    "assay system": "SHP2 (Homo sapiens (Human))",
    "measurement units": "nM",
    "IC50": 10
  },
  {
    "compound": "C[C@H]1C[C@@H](N)C2(CCN(c3nc(N)c(Sc4ccnc(N)c4Cl)c(=O)n3C)CC2)C1",
    "assay system": "SHP2 (Homo sapiens (Human))",
    "measurement units": "nM",
    "IC50": 28
  },
  {
    "compound": "Cn1c(N2CCC3(CCC[C@H]3N)CC2)nc(N)c(-c2cccc(Cl)c2Cl)c1=O",
    "assay system": "SHP2 (Homo sapiens (Human))",
    "measurement units": "nM",
    "IC50": 21
  },
  {
    "compound": "Cn1c(N2CCC3(CC2)C[C@H](F)C[C@H]3N)nc(N)c(-c2ccccc2)c1=O",
    "assay system": "SHP2 (Homo sapiens (Human))",
    "measurement units": "nM",
    "IC50": 46
  }
]
